pKi: −log10 of the molar value.
The following are reported pKi results, target or system Alpha1A (Homo sapiens).
measure: pKi

[
  {
    "compound": "CCNC1(c2cccc(OC)c2)CCCCC1=O (racemic)",
    "endpoint_value": "< 5.00"
  },
  {
    "compound": "COc1cccc(C2(N3CCCCC3)CCCCC2)c1",
    "endpoint_value": "< 5.00"
  },
  {
    "compound": "COc1ccc(C2(N3CCCCC3)CCCCC2)cc1",
    "endpoint_value": "< 5.00"
  }
]

----------
The following are reported Ki results, target or system NET (norepinephrine transporter) (Homo sapiens).
measure: Ki

[
  {
    "compound": "COc1ccc(C2(N3CCCCC3)CCCCC2)cc1",
    "tgt": "NET (norepinephrine transporter) (Homo sapiens)",
    "measure": "Ki",
    "endpoint_value": "0.713 µM"
  },
  {
    "compound": "COc1cccc(C2(N3CCCCC3)CCCCC2)c1",
    "tgt": "NET (norepinephrine transporter) (Homo sapiens)",
    "measure": "Ki",
    "endpoint_value": "> 10 µM"
  },
  {
    "compound": "CCNC1(c2cccc(OC)c2)CCCCC1=O (racemic)",
    "tgt": "NET (norepinephrine transporter) (Homo sapiens)",
    "measure": "Ki",
    "endpoint_value": "> 10 µM"
  }
]
